Entry source: ChEMBL document CHEMBL1149262

pKi: −log10 of the molar value.
pKi, Sodium-dependent noradrenaline transporter (Homo sapiens), per-entry values.

{"molecule": "COC(=O)[C@@H]1C2CCC(C[C@H]1c1ccc(C)cc1)N2C (some centres not stated)", "pKi": 6.80}
{"molecule": "COC(=O)[C@H]1[C@@H](c2ccc(F)cc2)C[C@H]2CC[C@H]1N2C", "pKi": 6.30}
{"molecule": "COC(=O)[C@@H]1C2CCC(C[C@H]1c1ccc(F)cc1)N2C (some centres not stated)", "pKi": 6.13}
{"molecule": "COC(=O)[C@H]1C2CCC(C[C@@H]1c1ccc(C)cc1)N2C (some centres not stated)", "pKi": 5.95}
{"molecule": "COC(=O)[C@@H]1C2CC[C@H](C[C@@H]1c1ccc(C)cc1)N2C", "pKi": 7.44}
{"molecule": "COC(=O)[C@@H]1C2CC[C@H](C[C@@H]1c1ccccc1)N2C", "pKi": 6.26}
{"molecule": "COC(=O)[C@H]1C2CCC(C[C@@H]1c1ccc(I)cc1)N2C (some centres not stated)", "pKi": 6.34}

* * *

Ki, Sodium-dependent serotonin transporter (Homo sapiens, UniProt P31645), per-entry values.

{"molecule": "COC(=O)[C@@H]1C2CC[C@H](C[C@@H]1c1ccc(I)cc1)N2C", "Ki (nM)": 0.38}
{"molecule": "COC(=O)[C@H]1C2CCC(C[C@@H]1c1ccc(I)cc1)N2C (stereo partly drawn)", "Ki (nM)": 6}
{"molecule": "COC(=O)[C@@H]1C2CCC(C[C@H]1c1ccc(I)cc1)N2C (stereo partly drawn)", "Ki (nM)": 5.9}
{"molecule": "COC(=O)[C@H]1[C@@H](c2ccc(F)cc2)C[C@H]2CC[C@H]1N2C", "Ki (nM)": 63}
{"molecule": "COC(=O)[C@@H]1C2CCC(C[C@H]1c1ccc(Br)cc1)N2C (stereo partly drawn)", "Ki (nM)": 20.6}
{"molecule": "COC(=O)[C@H]1C2CCC(C[C@@H]1c1ccc(Br)cc1)N2C (stereo partly drawn)", "Ki (nM)": 140}
{"molecule": "COC(=O)[C@@H]1C2CCC(C[C@H]1c1ccc(F)cc1)N2C (stereo partly drawn)", "Ki (nM)": 460}
{"molecule": "COC(=O)[C@@H]1C2CCC(C[C@@H]1c1ccc(Br)cc1)N2C (stereo partly drawn)", "Ki (nM)": 0.96}

* * *

# Test system: Mus musculus
# experimentalProtocol: Locomotor activity in CD1 mouse assessed as stimulation at 1 mg/kg, ip after 2 hrs relative to control
# Assay type: functional
# conditionDetails: route intraperitoneal
Property: Activity; scope: individual molecules

{"molecule": "COC(=O)[C@H]1C2CCC(C[C@@H]1c1ccc(Br)cc1)N2C (stereo not given in full)", "measurementUnits": "%", "Activity": 26}
{"molecule": "COC(=O)[C@H]1C2CCC(C[C@@H]1c1ccc(Cl)cc1)N2C (stereo not given in full)", "measurementUnits": "%", "Activity": 50}
{"molecule": "COC(=O)[C@@H]1C2CCC(C[C@H]1c1ccc(Br)cc1)N2C (stereo not given in full)", "measurementUnits": "%", "Activity": -26}
{"molecule": "COC(=O)[C@H]1C2CCC(C[C@@H]1c1ccc(I)cc1)N2C (stereo not given in full)", "measurementUnits": "%", "Activity": 44}
{"molecule": "COC(=O)[C@H]1[C@H]2CCC(C[C@H]1c1ccc(Cl)cc1)N2C", "measurementUnits": "%", "Activity": 182}
{"molecule": "COC(=O)[C@@H]1C2CCC(C[C@@H]1c1ccc(Br)cc1)N2C (stereo not given in full)", "measurementUnits": "%", "Activity": 35}
{"molecule": "COC(=O)[C@H]1C2CCC(C[C@@H]1c1ccc(C)cc1)N2C (stereo not given in full)", "measurementUnits": "%", "Activity": -76}
{"molecule": "COC(=O)[C@H]1[C@@H](c2ccc(F)cc2)C[C@H]2CC[C@H]1N2C", "measurementUnits": "%", "Activity": 232}
{"molecule": "COC(=O)[C@@H]1C2CC[C@H](C[C@@H]1c1ccccc1)N2C", "measurementUnits": "%", "Activity": 192}
{"molecule": "COC(=O)C1C2CC[C@H](C[C@@H]1c1ccc(Cl)cc1)N2C (stereo not given in full)", "measurementUnits": "%", "Activity": 958}
